system: SF-539 CNS; assay: NCI tumour cell line growth inhibition, 48 h
attribute measured: TGI (µM)
Report the value in µM with no unit label.

The recorded TGI for entry CN(C)CCCn1c2c(c3ccncc3c1=O)C(=O)c1ccccc1-2 equals 5.95

Reported TGI for CCCCCCn1c(=N)n(CC(O)COc2cccc(C)c2)c2ccccc21 (centres undefined) was 4.43

TGI reported for this molecule COc1ccc(/C(C)=C(\c2ccc(Cl)cc2)c2ccc(OCCN3CCCCC3)cc2)cc1F : 4.67

---

tested on: A498 renal; assay: NCI tumour cell line growth inhibition, 48 h
attribute measured: TGI

Record summary for COC(=O)c1c(OC(=O)c2ccccc2)noc1CC(=O)OC1C=CCCC1 (stereo not given) : reported TGI = > 100 µM

TGI in this record for COc1cc2c(cc1C)NC(=O)/C2=C/c1c(Cl)n(C)c2ccccc12 : 21.5 µM

Given item CCOC(=O)C(Cc1ccc(N(CCCl)CCCl)cc1)NC(=O)C(CC(C)C)NC(C)=O (stereo not given) , the value recorded as its TGI is 10.6 µM

For reference, reported TGI for Nc1nc(N)c2nn(-c3ccc(C(=O)O)cc3)nc2n1 stands at > 100 µM

compound COc1ccc2[nH]c3c(C)c4ccnc(NCCCN(C)CCCNC(=O)NCCCN(C)CCCNc5nccc6c(C)c7[nH]c8ccc(OC)cc8c7c(C)c56)c4c(C)c3c2c1 , TGI observed: 5 µM

Item: O=C(Cc1nc2ccccc2s1)C(=O)Nc1ccccc1C(F)(F)F | TGI: > 100 µM

For COC(=O)c1ccc2[nH]c3c(c2c1)CC(=O)Nc1ccccc1-3 the compound record lists TGI as > 100 µM

Documented TGI of CCS(=O)(=O)Nc1ccc(Oc2ccc(F)cc2F)c(-c2cn(C)c(=O)c3[nH]ccc23)c1 : 4.01 µM

Kindly note the recorded TGI for CCN1CCc2sc3[nH]c(=S)n(C)c(=O)c3c2C1 , which is > 100 µM

Record summary for CN1CCN(c2nc3c(c(=O)n(C)c(=O)n3C)n2C)CC1 : reported TGI = > 100 µM

The value of TGI measured for the compound CN(C)CCCN1c2ccc3ccccc3c2Sc2cccc(Cl)c21 turned out to be 25.8 µM

Please fill in: TGI reported for CCN(CC)CC(C(=O)Nc1c(C)cccc1C)/C(C)=N/NC(N)=S (stereo not given) = > 100 µM

TGI reported for this compound COc1cc2c(c(OC)c1OC)-c1c(c3ccc([N+](=O)[O-])cc3c(=O)n1CCCN=[N+]=[N-])C2=O : 29.6 µM

GET /value?item= O=[N+]([O-])c1ccc(-c2ccc(C3=Nn4c(nnc4-c4ccc(Cl)cc4)SC3)o2)cc1 &field=TGI returns > 100 µM

Field TGI (entry CC(C)(C)C(=O)Cc1cc2c(cc1C(=O)O)S(=O)(=O)NC(C(C)(C)C)=C2 ) reads > 100 µM

Short answer for COc1ccc2c(c1)CCC1C2CCC2(C)C1CC[C@@]2(O)CNC(=O)/C=C/c1ccc(O)c(O)c1 (stereo not given in full) : TGI was 39.8 µM

Form field TGI, entry N=C(N)c1ccc(-c2ccc(-c3ccc(Cl)cc3)s2)s1 : 45.3 µM

# compound Cc1cc(C)n(CN(Cn2nc(C)cc2C)c2ccc(N(Cn3nc(C)cc3C)Cn3nc(C)cc3C)cc2)n1 ; its TGI = 63.2 µM

// TGI value for COc1cc(OC)cc(N(C)Cc2cnc3nc(N)nc(N)c3c2C)c1 : > 100 µM

GET /value?item= CC(C)OP(=O)(OC(C)C)c1ncn(-c2ccc([N+](=O)[O-])cc2)n1 &field=TGI returns > 100 µM

// field: TGI; key: CCOc1c(OC)cc(CNNc2nccs2)cc1OC ; value = > 100 µM

Short answer for Cc1[nH]c(=O)nc2c1C(=O)N(C(C)C)C(NC(C)C)S2 (stereo not given) : TGI was > 100 µM

Reported TGI of COc1cc(NS(C)(=O)=O)ccc1N1Cc2cnc3ccc4[nH]ccc1c4c23 : > 100 µM

TGI measured on NC(N)=NS(=O)(=O)c1ccc(NC(=O)c2c3ccccc3nc3ccccc23)cc1 = > 100 µM

The measured TGI associated with O=S(=O)(N1CCCCN(S(=O)(=O)C(F)(F)F)CCCN(S(=O)(=O)C(F)(F)F)CCCN(S(=O)(=O)C(F)(F)F)CCCCN(S(=O)(=O)C(F)(F)F)CCCN(S(=O)(=O)C(F)(F)F)CCC1)C(F)(F)F reads > 100 µM

The recorded TGI for C=C1C(=O)O[C@H]2[C@H]1CC/C(Cn1cc(CNC(=O)c3cc4ccccc4[nH]3)nn1)=C\CC[C@@]1(C)O[C@@H]21 is 36 µM

Entry C#Cc1cccc(NC(=O)Nc2cccc(NC(=O)CCl)c2)c1 — recorded TGI = > 82.5 µM

Query COc1c(-c2ccc3c(c2)OCO3)oc2cc3c(c(OC)c2c1=O)OCO3 yields TGI of 50.3 µM

Recorded result, C[Si](C)(C)C1=C2C(=O)c3ccccc3C(=O)C2=C([Si](C)(C)C)[C@@H]2CCCC[C@H]12 , TGI: > 100 µM

Measured TGI, CC(C)CCC[C@@H](C)[C@H]1CC[C@H]2[C@@H]3CC=C4CC(OCCCCN(O)CCCSC5OC(CO)C(O)C(O)C5O)CC[C@]4(C)[C@H]3CC[C@]12C (stereo not given in full) : > 100 µM
